# experimental-target: human CB2R (Homo sapiens, UniProt P34972)
# Construct: host or cells: CHO cells
# Sequence (P34972 whole entry): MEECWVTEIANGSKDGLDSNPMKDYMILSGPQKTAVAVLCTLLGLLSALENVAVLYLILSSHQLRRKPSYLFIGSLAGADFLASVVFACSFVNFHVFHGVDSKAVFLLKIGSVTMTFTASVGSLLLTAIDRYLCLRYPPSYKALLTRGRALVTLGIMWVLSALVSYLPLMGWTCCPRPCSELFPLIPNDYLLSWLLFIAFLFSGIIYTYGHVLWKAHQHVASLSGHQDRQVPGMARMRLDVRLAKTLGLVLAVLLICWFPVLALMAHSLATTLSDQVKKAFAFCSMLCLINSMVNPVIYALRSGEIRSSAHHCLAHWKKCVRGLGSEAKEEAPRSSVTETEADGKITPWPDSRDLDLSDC
# protocol-details: CB2R mediated modulation of cAMP synthesis (forskolin-stimulated cAMP, CHO cells expressing human CB2R)
# Format: cell-based
# Method: B. CB2R Mediated Modulation of cAMP Synthesis: Compounds of the invention were evaluated for their CB2 agonist or inverse agonistic activity in accordance with the following experimental method. CHO cells expressing human CB2R (Euroscreen) were plated at a density of 5000 cells per well in 384 well plates and incubated overnight at 37° C. […] Cells were lysed and the cAMP concentration was measured using DiscoverX-XS cAMP kit, following the manufacturer's protocol. […]
reported-property: EC50 (nM)
Quick note: give the figure in nM, leave out the unit.

CC(C)(C)c1cc(NC(=O)[C@@H]2CCCCN2C(=O)CN2CCC(F)(F)C2)no1: 2.9
O=C(Nc1cc(C2CCCCC2)no1)[C@@H]1CCCCN1C(=O)N1CCS(=O)(=O)CC1: 59
CC(C)(C)c1cc(NC(=O)[C@@H]2CCCCCN2C2CCOCC2)no1: 0.18

stdin: Which EC50 value is on record for CC(C)(C)c1cc(NC(=O)C2CCCN(c3ncc(C(F)(F)F)cc3Cl)C2)no1 (stereo not shown) ?
stdout: 113
